The values you see were collected from patent US20150344457A1.

testedTarget: PRMT5/MEP50 (Homo sapiens, UniProt O14744)
Construct: Expressed full-length human Flag-PRMT5/6His-MeP50 protein complex was purified; made in house; host or cells: Spodoptera frugiperda (SF9) insect cells, baculovirus (pDEST8)
Sequence (O14744 with tags, fused parts or gaps): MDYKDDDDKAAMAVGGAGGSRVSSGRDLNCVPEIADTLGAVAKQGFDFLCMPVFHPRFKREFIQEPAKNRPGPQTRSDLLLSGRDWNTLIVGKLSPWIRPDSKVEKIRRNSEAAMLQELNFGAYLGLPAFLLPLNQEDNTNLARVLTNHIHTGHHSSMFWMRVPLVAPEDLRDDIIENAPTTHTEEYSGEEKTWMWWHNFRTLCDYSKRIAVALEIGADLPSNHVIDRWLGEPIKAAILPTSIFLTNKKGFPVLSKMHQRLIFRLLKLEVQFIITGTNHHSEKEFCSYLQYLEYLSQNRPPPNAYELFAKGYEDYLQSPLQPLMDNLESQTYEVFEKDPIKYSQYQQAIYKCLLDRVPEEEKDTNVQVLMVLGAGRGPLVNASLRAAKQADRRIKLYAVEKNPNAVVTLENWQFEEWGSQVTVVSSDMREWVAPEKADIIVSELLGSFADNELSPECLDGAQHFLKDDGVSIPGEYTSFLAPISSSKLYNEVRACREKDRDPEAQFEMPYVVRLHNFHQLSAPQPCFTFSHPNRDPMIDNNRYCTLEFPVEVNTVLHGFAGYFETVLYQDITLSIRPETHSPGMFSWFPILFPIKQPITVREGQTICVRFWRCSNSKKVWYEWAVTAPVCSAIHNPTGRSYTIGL
Sequence (Q9BQA1 with tags, fused parts or gaps partner limits assumed): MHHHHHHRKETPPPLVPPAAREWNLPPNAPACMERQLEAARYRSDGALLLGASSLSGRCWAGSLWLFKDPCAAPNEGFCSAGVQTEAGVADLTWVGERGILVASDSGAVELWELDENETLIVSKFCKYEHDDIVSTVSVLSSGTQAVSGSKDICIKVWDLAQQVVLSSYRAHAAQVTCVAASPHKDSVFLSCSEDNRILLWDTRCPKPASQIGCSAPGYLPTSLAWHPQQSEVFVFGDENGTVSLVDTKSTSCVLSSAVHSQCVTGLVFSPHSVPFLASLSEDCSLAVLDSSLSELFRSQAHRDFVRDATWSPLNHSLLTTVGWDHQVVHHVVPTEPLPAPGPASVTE
procedureSummary: PRMT5 Biochemical Assay (PRMT5/MEP50 enzyme assay on peptide substrate, 3H-SAM Flashplate)
assayConditions: Table B-2; PRMT5/MEP50 4 nM, 3H-SAM 75 nM, peptide 40 nM; read-out: Biochemical IC50
Collected IC50 values appear next to each entry.

O=C(NCC(O)CN1CCc2ccccc2C1)c1cccc(C(=O)N2CCOCC2)c1 (centres unmarked) :: 1 to 10 µM
O=C(NCC(O)CN1CCc2ccccc2C1)c1cccc(OC2CCOCC2)c1 (centres unmarked) :: 0.101 to 1 µM
O=C(NCC(O)CN1CCc2ccccc2C1)c1ccc(-c2ccccn2)cc1 (centres unmarked) :: < 0.1 µM

Find the recorded IC50 belonging to CS(=O)(=O)Nc1cccc(C(=O)NCC(O)CN2CCc3ccccc3C2)c1 (centres unmarked) and report it.
< 0.1 µM

Find the recorded IC50 belonging to O=C(NCC(O)CN1CCc2ccccc2C1)c1cc(NC2CCOCC2)ccc1F (centres unmarked) and report it.
0.101 to 1 µM

Find the recorded IC50 belonging to O=C(NCC(O)CN1CCc2ccccc2C1)c1cccnc1 (centres unmarked) and report it.
0.101 to 1 µM

Find the recorded IC50 belonging to O=C(NC[C@H](O)CN1CCc2ccccc2C1)c1cccc(-c2ccccn2)c1 and report it.
< 0.1 µM

Find the recorded IC50 belonging to O=C(NC[C@H](O)CN1CCc2ccccc2C1)c1cccc(NC2CCOCC2)c1 and report it.
< 0.1 µM
